testTarget: pHrodo-labeled tau P301L soluble oligomer, P10636
Sequence (P10636 other isoform, or with tags, fused parts or gaps P301L P301L): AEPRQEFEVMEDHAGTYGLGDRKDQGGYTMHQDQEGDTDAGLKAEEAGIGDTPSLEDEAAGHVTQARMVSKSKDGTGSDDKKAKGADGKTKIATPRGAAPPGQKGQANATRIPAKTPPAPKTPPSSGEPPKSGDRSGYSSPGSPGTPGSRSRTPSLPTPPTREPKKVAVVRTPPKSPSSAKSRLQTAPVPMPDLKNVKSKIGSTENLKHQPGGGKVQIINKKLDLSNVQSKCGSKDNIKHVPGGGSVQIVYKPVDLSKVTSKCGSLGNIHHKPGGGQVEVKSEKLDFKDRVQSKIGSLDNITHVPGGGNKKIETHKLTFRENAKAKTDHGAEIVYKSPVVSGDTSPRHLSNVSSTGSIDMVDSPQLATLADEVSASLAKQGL
procedureText: cell-based or functional assay
internalized pHrodo-tau in B103 cells (FACS), antibody at 0.98 µg/mL (% of maximum signal): recorded values
measureName: internalized pHrodo-tau in B103 cells (FACS), antibody at 0.98 µg/mL (% of maximum signal)

mouse 2D11 antibody (antibody, mouse IgG2a, V domains shown, here or on the partner: pHrodo label) VH: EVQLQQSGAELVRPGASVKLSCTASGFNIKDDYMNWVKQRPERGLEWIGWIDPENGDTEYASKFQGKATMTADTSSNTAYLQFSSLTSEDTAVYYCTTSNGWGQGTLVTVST VL: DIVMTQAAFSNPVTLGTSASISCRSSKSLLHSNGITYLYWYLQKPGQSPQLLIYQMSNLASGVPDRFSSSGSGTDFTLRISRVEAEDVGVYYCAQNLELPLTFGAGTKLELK | 62.7
mouse 9F5 antibody (antibody, mouse IgG1, V domains shown, here or on the partner: pHrodo label) VH: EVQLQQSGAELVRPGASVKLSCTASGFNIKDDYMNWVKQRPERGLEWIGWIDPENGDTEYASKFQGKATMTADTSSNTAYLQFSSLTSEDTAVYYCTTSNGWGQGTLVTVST VL: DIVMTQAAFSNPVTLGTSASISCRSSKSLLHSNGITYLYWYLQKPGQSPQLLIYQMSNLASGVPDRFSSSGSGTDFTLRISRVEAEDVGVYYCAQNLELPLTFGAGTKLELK | 71
mouse 14H3 antibody (antibody, mouse IgG2a, V domains shown, here or on the partner: pHrodo label) VH: QVTLKESGPGILQPSQTLSLTCSFSGFSLSTYGMGVGWIRQPSGKGLEWLANIWWDDIKYYNAALKSRLTISKDTSKNQVFLKIASVDTADTATYYCARNVDYWGQGTTLTVSS VL: DVVMTQTPLSLPVSLGDQASISCRSSQSLVHSNGNTFLHWYLQKPGQSPKLLIYKVSNRFSGVPDRFSGSGSGTDFTLKISRVEAEDLGVYFCSQSTLVPWTFGGGTKLEIK | 67.8
